Data origin, for the record: ChEMBL document CHEMBL1157462

The entries below come with measured inhibition at 10 µM values attached.
# MEASUREMENT_TARGET: Sodium channel protein type 5 subunit alpha (Homo sapiens, UniProt Q14524)
# Sequence (Q14524 whole entry): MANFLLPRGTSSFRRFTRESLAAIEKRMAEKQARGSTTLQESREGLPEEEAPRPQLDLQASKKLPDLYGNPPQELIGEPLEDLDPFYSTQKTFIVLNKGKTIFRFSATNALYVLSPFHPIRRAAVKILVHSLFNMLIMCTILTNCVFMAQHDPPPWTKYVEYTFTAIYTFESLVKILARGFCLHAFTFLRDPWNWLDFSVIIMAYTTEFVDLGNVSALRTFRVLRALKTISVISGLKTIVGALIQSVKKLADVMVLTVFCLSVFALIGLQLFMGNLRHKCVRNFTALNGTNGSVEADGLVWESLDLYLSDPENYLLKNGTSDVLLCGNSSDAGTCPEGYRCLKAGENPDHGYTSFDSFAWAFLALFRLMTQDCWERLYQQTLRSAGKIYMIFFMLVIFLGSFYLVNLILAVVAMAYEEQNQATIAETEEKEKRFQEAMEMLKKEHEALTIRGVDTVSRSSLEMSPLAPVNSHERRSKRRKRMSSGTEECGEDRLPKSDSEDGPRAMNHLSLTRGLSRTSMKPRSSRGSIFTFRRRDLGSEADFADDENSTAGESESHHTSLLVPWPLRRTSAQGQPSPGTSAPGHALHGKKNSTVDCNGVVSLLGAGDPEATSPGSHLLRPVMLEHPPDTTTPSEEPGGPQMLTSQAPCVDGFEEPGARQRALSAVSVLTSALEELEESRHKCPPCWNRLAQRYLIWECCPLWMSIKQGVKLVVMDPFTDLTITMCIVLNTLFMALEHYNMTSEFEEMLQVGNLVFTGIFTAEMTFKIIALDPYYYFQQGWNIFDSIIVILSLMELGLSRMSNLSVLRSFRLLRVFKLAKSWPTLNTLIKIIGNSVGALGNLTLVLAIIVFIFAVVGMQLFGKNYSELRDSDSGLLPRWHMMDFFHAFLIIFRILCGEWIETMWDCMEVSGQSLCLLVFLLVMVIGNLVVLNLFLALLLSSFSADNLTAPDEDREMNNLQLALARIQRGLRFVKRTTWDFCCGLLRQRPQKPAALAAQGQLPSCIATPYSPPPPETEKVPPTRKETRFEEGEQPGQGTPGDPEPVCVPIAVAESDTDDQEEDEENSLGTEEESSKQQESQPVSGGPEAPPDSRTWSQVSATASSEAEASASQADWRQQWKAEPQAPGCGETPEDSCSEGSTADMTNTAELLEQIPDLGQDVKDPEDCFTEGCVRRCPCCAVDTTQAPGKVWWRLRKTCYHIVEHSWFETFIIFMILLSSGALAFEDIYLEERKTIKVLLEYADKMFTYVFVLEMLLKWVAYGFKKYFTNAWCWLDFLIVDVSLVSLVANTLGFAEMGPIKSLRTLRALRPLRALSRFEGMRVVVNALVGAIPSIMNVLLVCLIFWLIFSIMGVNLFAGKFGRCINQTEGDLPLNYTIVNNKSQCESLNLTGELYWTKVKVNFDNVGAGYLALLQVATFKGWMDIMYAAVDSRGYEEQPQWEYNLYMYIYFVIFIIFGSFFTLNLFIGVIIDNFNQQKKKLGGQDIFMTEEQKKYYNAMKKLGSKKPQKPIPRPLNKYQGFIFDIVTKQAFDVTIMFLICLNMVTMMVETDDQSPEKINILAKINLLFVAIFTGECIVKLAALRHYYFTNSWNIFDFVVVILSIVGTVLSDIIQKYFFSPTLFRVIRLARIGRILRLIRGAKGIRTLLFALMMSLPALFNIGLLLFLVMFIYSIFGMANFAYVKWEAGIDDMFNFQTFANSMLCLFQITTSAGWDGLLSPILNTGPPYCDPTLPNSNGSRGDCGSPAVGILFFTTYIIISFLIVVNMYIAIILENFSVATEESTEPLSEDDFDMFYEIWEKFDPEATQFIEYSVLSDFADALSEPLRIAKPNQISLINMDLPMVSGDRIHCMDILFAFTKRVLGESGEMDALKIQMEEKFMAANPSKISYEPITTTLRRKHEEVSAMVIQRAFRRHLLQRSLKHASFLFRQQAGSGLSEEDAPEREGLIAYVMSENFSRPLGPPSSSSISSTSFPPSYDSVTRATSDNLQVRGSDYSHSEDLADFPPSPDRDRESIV
# TEST_METHOD_NOTES: Inhibition of human sodium Nav1.5 channel expressed in HEK293 cells assessed as inhibition of veratridine-induced late sodium current elicited at -30 mV from holding potential of -90 mV at 10 uM by patch clamp technique
# Assay type: cell-based
# RECORDED_CONDITIONS: HEK293, human
QUANTITY_NAME: inhibition at 10 µM

COc1ccccc1SCC(O)CN[C@H]1COc2ccccc2SC1 (mixture of isomers): 21%
COc1ccccc1SC[C@H](CN[C@@H]1COc2ccccc2SC1)C(C)C: 34%
COc1ccccc1SC[C@@H](O)CN[C@@H]1COc2ccccc2SC1: 75%
COc1ccccc1SC[C@@H](C)CN[C@H]1COc2ccccc2SC1: 41%
C=C(CN[C@@H]1COc2ccccc2SC1)CSc1ccccc1OC: 37%

* * *

# MEASUREMENT_TARGET: Sodium channel protein type 5 subunit alpha (Homo sapiens)
# TEST_METHOD_NOTES: Inhibition of human sodium Nav1.5 channel expressed in HEK293 cells assessed as inhibition of veratridine-induced late sodium current elicited at -30 mV from holding potential of -110 mV at 10 uM by patch clamp technique
# Type: cell-based
# RECORDED_CONDITIONS: HEK293, human
QUANTITY_NAME: inhibition at 10 µM (%)

COc1ccccc1SC[C@H](C)CN[C@@H]1COc2ccccc2SC1: 22
COc1ccccc1SC[C@H](C)CN[C@H]1COc2ccccc2SC1: 30
COc1ccccc1OCC(O)CN1CCN(CC(=O)Nc2c(C)cccc2C)CC1 (stereo not drawn): 11
COc1ccccc1SCC(CN[C@@H]1COc2ccccc2SC1)=C(C)C: 31
CC[C@@H](CN[C@@H]1COc2ccccc2SC1)CSc1ccccc1OC: 46
COc1ccccc1SCC(O)CN[C@H]1COc2ccccc2SC1 (mixture of isomers): 16
CCO[C@@H](CN[C@@H]1COc2ccccc2SC1)CSc1ccccc1OC: 22
COc1ccccc1SC[C@@H](F)CN[C@@H]1COc2ccccc2SC1: 11
